targetSystem: human GIP receptor (bioGIPR) (Homo sapiens)
Construct: Biotinylate extracellular of the human GIP receptor (bioGIPR, Proteros biostructures GmbH, lot #02/2b); purchased Proteros biostructures GmbH lot #02/2b
Sequence (P48546 22-138 limits assumed): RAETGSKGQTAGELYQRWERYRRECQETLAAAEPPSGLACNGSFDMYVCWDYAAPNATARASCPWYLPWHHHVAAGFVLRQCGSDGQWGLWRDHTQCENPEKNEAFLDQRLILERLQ
testSummary: Surface plasmon resonance (SPR) based binding assay
assayContext: SPR, Single Cycle Kinetic mode, 25° C., 1:1 Langmuir binding model; read-out: pKD Category (converted)
*1 amine or outer side, *2 acyl side, *3 side chain or, on linkers, in order; H or OH if unused. Where a SMILES comes first, the peptide text is derived from it. Bridges are numbered along the chain shown (N, C = ends). [ ]: non-standard residue; d: D form. The star is where a group is joined. X11 = O=C(CN1CCN2CCN3CCN(CC1)CC(=O)[O][In]([O]C(=O)C2)[O]C(=O)C3)NCCCOCCOCCOCCCN*; DOTA(In) = O=C1CN2CCN3CCN(CC(=O)*)CCN(CC2)CC(=O)[O][In]([O]1)[O]C(=O)C3; Trp(5-Cl) = N[C@@H](Cc1c[nH]c2ccc(Cl)cc12)C(=O)O; Pyridine(2,6-diCH2) = c1cc(C[*:1])nc(C[*:2])c1; X6 = c1cc(CSCCN[*:2])nc(C[*:1])c1; X7 = c1cc(CSCCN[*:2])cc(C[*:1])c1; Hyp = O=C(O)[C@@H]1C[C@@H](O)CN1; X1 = O=C(CN1CCC(N[*:1])CC1)[*:2]; hArg = N=C(N)NCCCC[C@H](N)C(=O)O; Suc = O=C(CCC(=O)[*:2])[*:1]; Api = NC1(C(=O)O)CCNCC1; Thp = NC1(C(=O)O)CCOCC1; Aib = CC(C)(N)C(=O)O
measuredAttribute: Kd

The reported human GIP receptor (bioGIPR) (Homo sapiens) Kd of CC[C@H](C)[C@@H]1NC(=O)[C@H](CC(C)C)NC(=O)C2(CCN(C(=O)CN3CCN4CCN5CCN(CC3)CC(=O)[O][In]([O]C(=O)C5)[O]C(=O)C4)CC2)NC(=O)[C@@H](NC(=O)[C@@H](CC(C)C)NC(=O)[C@H](CCC(=O)O)NC(=O)[C@@H]2C[C@@H](O)CN2C(=O)[C@H](Cc2c[nH]c3ccc(Cl)cc23)NC(=O)[C@H](Cc2c[nH]c3ccccc23)NC(=O)CCC(=O)O)CSCc2cccc(n2)CSCCNC1=O [GIP-169] (Suc-W[Trp(5-Cl)][Hyp]E[dL]C[Api](DOTA(In))LI; linker 6-C via X6) is < 1 nM

The reported human GIP receptor (bioGIPR) (Homo sapiens) Kd of CC[C@H](C)[C@@H]1NC(=O)[C@H](CC(C)C)NC(=O)C2(CCOCC2)NC(=O)[C@@H](NC(=O)[C@@H](CC(C)C)NC(=O)[C@H](CCC(=O)O)NC(=O)[C@@H]2C[C@@H](O)CN2C(=O)[C@H](Cc2c[nH]c3ccc(Cl)cc23)NC(=O)[C@H](Cc2c[nH]c3ccccc23)NC(=O)[C@H](CC(=O)O)NC(=O)CN2CCC(NC(=O)CN3CCN4CCN5CCN(CC3)CC(=O)[O][In]([O]C(=O)C4)[O]C(=O)C5)CC2)CSCc2cccc(n2)CSCCNC1=O [GIP-155] ({DOTA(In)}-[X1]DW[Trp(5-Cl)][Hyp]E[dL]C[Thp]LI; linker 8-C via X6) is < 1 nM

The reported human GIP receptor (bioGIPR) (Homo sapiens) Kd of CC[C@H](C)[C@@H]1NC(=O)[C@H](CC(C)C)NC(=O)C2(CCOCC2)NC(=O)[C@@H](NC(=O)[C@@H](CC(C)C)NC(=O)[C@H](CCCCNC(=N)N)NC(=O)[C@@H]2C[C@@H](O)CN2C(=O)[C@H](Cc2c[nH]c3ccc(Cl)cc23)NC(=O)[C@H](Cc2c[nH]c3ccccc23)NC(=O)[C@H](CC(=O)O)NC(C)=O)CSCc2cccc(n2)CSC[C@@H](C(N)=O)NC1=O [GIP-395] (Ac-DW[Trp(5-Cl)][Hyp][hArg][dL]C[Thp]LIC-NH2; linker 7-11 via Pyridine(2,6-diCH2)) is 1 to 7.94 nM

Further cases:
The reported human GIP receptor (bioGIPR) (Homo sapiens) Kd of CC[C@H](C)[C@@H]1NC(=O)[C@H](CC(C)C)NC(=O)C(C)(C)NC(=O)[C@@H](NC(=O)[C@@H](CC(C)C)NC(=O)[C@H](CCC(=O)O)NC(=O)[C@@H]2C[C@@H](O)CN2C(=O)[C@H](Cc2c[nH]c3ccc(Cl)cc23)NC(=O)[C@H](Cc2c[nH]c3ccccc23)NC(=O)[C@H](CC(=O)O)NC(=O)CCC(=O)NCCCOCCOCCOCCCNC(=O)CN2CCN3CCN4CCN(CC2)CC(=O)[O][In]([O]C(=O)C3)[O]C(=O)C4)CSCc2cccc(c2)CSCCNC1=O [GIP-151] ({X11-Suc}-DW[Trp(5-Cl)][Hyp]E[dL]C[Aib]LI; linker 7-C via X7) is < 1 nM
